assayed-system: UniProt:P30872
Where a SMILES comes first, the peptide text is derived from it. Bridges are numbered along the chain shown (N, C = ends). [ ]: non-standard residue; d: D form. The star is where a group is joined. ξ: configuration not given here. dPhe(4-Cl) = N[C@H](Cc1ccc(Cl)cc1)C(=O)O; 2Nal = N[C@@H](Cc1ccc2ccccc2c1)C(=O)O; dNMeF = CN[C@H](Cc1ccccc1)C(=O)O; dNMeA = CN[C@H](C)C(=O)O; Ahp = NCCCCCCC(=O)O; Ahx = NCCCCCC(=O)O; Bn = c1ccc(C*)cc1; ξC = NC(CS)C(=O)O
reported-metric: Ki (nM)

Worked set:
CC(C)[C@H](NC(=O)[C@H](CCCCN)NC(=O)[C@@H](Cc1c[nH]c2ccccc12)NC(=O)[C@H](Cc1ccc(O)cc1)NC(=O)[C@H](C)NC(=O)[C@H](N)Cc1ccccc1)C(=O)N[C@@H](C)C(=O)N[C@@H](Cc1ccc2ccccc2c1)C(N)=O (H-[dF]AY[dW]KVA[2Nal]-NH2)    1000
C[C@@H](OCc1ccccc1)[C@@H]1NC(=O)[C@H](CCCCN)NC(=O)[C@@H](Cc2c[nH]c3ccccc23)NC(=O)[C@H](Cc2ccccc2)NC(=O)CCCCCCNC1=O [c[Aha-Phe-D-Trp-Lys-Thr(Bzl)]] (cyclo([Ahp]F[dW]KT(Bn)))    141
C[C@H](O)[C@H]1NC(=O)[C@H](CCCCN)NC(=O)[C@@H](Cc2c[nH]c3ccccc23)NC(=O)[C@@H](Cc2ccccc2)NC(=O)[C@@H](C)N(C)C(=O)[C@@H](Cc2ccccc2)N(C)C1=O (cyclo(K[dT][dNMeF][dNMeA][dF][dW]))    1000
CC(C)[C@H](NC(=O)[C@H](CCCCN)NC(=O)[C@@H](Cc1c[nH]c2ccccc12)NC(=O)[C@H](Cc1ccc(O)cc1)NC(=O)[C@H](C)NC(=O)[C@H](N)Cc1ccc(Cl)cc1)C(=O)N[C@@H](C)C(=O)N[C@@H](Cc1ccc2ccccc2c1)C(N)=O [CAS_150155-67-2] (H-[dPhe(4-Cl)]AY[dW]KVA[2Nal]-NH2)    1000

I: C[C@@H](O)[C@@H]1NC(=O)[C@H](CCCCN)NC(=O)[C@@H](Cc2c[nH]c3ccccc23)NC(=O)[C@H](Cc2c[nH]c3ccccc23)NC(=O)[C@H](Cc2ccccc2)NC(=O)CCCCCCNC(=O)[C@H](Cc2ccccc2)NC1=O [L-362855] (cyclo([Ahp]FW[dW]KTF))
II: NCCCC[C@@H]1NC(=O)[C@@H](Cc2c[nH]c3ccccc23)NC(=O)[C@H](Cc2ccccc2)NC(=O)CCCCCCNC(=O)[C@H](COCc2ccccc2)NC1=O [c[Aha-Phe-D-Trp-Lys-Ser(Bzl)]] (cyclo([Ahp]F[dW]KS(Bn)))
Hi, I'm comparing two records. Which one has the lower Ki, I or II ? Kindly state the label of the option you pick.
II

a: C[C@@H](O)[C@@H]1NC(=O)[C@H](CCCCN)NC(=O)[C@@H](Cc2c[nH]c3ccccc23)NC(=O)[C@H](Cc2ccccc2)NC(=O)[C@@H]2CSSCC(NC1=O)C(=O)NCCCCCCC(=O)N2 (cyclo([Ahp]CF[dW]KT[ξC]); disulfide 2-7)
b: C[C@@H](OCc1ccccc1)[C@@H]1NC(=O)[C@H](CCCCN)NC(=O)[C@@H](Cc2c[nH]c3ccccc23)NC(=O)[C@H](Cc2ccccc2)NC(=O)CCCCCNC1=O [c[Ahx-Phe-D-Trp-Lys-Thr(Bzl)]] (cyclo([Ahx]F[dW]KT(Bn)))
For the two items a and b , which reports the higher Ki value? Kindly state the label of the option you pick.
a
(a: 1000 nM, b: 183 nM)

* * *

Ki data for Somatostatin receptor type 2 (Mus musculus) follow.
Where a SMILES comes first, the peptide text is derived from it. Bridges are numbered along the chain shown (N, C = ends). [ ]: non-standard residue; d: D form. The star is where a group is joined. ξ: configuration not given here. Ahp = NCCCCCCC(=O)O; Bn = c1ccc(C*)cc1; ξC = NC(CS)C(=O)O
reported-metric: Ki (nM)

C[C@@H](O)[C@H](NC(=O)[C@H](Cc1ccccc1)NC(=O)[C@@H](NC(=O)[C@H](CCCCN)NC(=O)[C@@H](Cc1c[nH]c2ccccc12)NC(=O)[C@H](Cc1ccccc1)NC(=O)[C@H](Cc1ccccc1)NC(=O)[C@H](N)Cc1ccccc1)[C@@H](C)O)C(N)=O [CAS_133073-82-2] (H-[dF]FF[dW]KTFT-NH2)    32

P: C[C@@H](OCc1ccccc1)[C@@H]1NC(=O)[C@H](CCCCN)NC(=O)[C@@H](Cc2c[nH]c3ccccc23)NC(=O)[C@H](Cc2ccccc2)NC(=O)CCCCCCNC1=O [c[Aha-Phe-D-Trp-Lys-Thr(Bzl)]] (cyclo([Ahp]F[dW]KT(Bn)))
Q: C[C@@H](O)[C@@H]1NC(=O)[C@H](CCCCN)NC(=O)[C@@H](Cc2c[nH]c3ccccc23)NC(=O)[C@H](Cc2ccccc2)NC(=O)[C@@H]2CSSCC(NC1=O)C(=O)NCCCCCCC(=O)N2 (cyclo([Ahp]CF[dW]KT[ξC]); disulfide 2-7)
R: C[C@@H](O)[C@H](NC(=O)[C@@H]1CSSC[C@H](NC(=O)[C@H](N)Cc2ccc3ccccc3c2)C(=O)N[C@@H](Cc2ccc(O)cc2)C(=O)N[C@H](Cc2c[nH]c3ccccc23)C(=O)N[C@@H](CCCCN)C(=O)N[C@@H]([C@@H](C)O)C(=O)N1)C(N)=O
Highest Ki first, then in falling order down to the smallest. List the labels according to the requested ordering.
P, Q, R

* * *

Ki values for the compounds below.
assayed-system: Somatostatin receptor type 1 (Homo sapiens)
Sequence (P30872 whole entry): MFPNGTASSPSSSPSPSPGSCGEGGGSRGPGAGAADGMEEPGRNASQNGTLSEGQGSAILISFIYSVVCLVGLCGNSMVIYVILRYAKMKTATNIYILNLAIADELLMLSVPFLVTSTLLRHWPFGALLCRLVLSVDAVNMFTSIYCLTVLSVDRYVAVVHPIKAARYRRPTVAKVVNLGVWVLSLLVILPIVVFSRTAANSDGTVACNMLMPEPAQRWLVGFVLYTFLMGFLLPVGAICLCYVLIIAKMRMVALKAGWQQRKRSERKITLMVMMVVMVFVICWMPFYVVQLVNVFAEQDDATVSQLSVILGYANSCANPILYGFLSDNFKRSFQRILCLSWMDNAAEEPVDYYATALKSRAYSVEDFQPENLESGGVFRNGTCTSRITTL
*1 amine or outer side, *2 acyl side, *3 side chain or, on linkers, in order; H or OH if unused. Where a SMILES comes first, the peptide text is derived from it. Bridges are numbered along the chain shown (N, C = ends). [ ]: non-standard residue; d: D form. The star is where a group is joined. NH(1-naphthylmethyl) = c1ccc2c(CN*)cccc2c1; X1 = O=C(C(N[*:1])S[*:3])[*:2]; Mpa = O=C(O)CCS
Enter your answer as a number in µM; do not include the unit.

CC(C)[C@@H]1NC(=O)[C@H](CCCCN)NC(=O)[C@@H](Cc2c[nH]c3ccccc23)NC(=O)[C@H](Cc2ccc(O)cc2)NC(=O)CCSSC(C(=O)N[C@@H](Cc2ccccc2)C(N)=O)NC1=O (some centres not stated) [CAS_117580-24-2] ([Mpa]Y[dW]KV[X1]F-NH2; disulfide 1-6)    1

We next turn to a different compound, shown below.
Name the reported Ki value associated with the compound NCCCCC1NC(=O)C(Cc2c[nH]c3ccccc23)NC(=O)C(Cc2ccc(O)cc2)NC(=O)C(NC(=O)C(N)Cc2ccccc2)CSSCC(C(=O)NCc2cccc3ccccc23)NC(=O)C(CO)NC1=O (configuration not stated) [NC4-28B] (H-FCYWKSC-{NH(1-naphthylmethyl)}; disulfide 2-7; configuration not given here)
1

* * *

assayed-system: UniProtKB P30875
Where a SMILES comes first, the peptide text is derived from it. Bridges are numbered along the chain shown (N, C = ends). [ ]: non-standard residue; d: D form. Phe(4-Cl) = N[C@@H](Cc1ccc(Cl)cc1)C(=O)O
reported-metric: pKi
// field semantics: pKi = negative decimal log of concentration (mol/L)

C[C@@H](O)[C@@H]1NC(=O)[C@H](Cc2ccccc2)NC(=O)[C@H]([C@@H](C)O)NC(=O)[C@H](CCCCN)NC(=O)[C@@H](Cc2c[nH]c3ccccc23)NC(=O)[C@H](Cc2ccccc2)NC(=O)[C@H](Cc2ccc(Cl)cc2)NC(=O)[C@H](CC(N)=O)NC(=O)[C@H](CCCCN)NC(=O)[C@@H](N)CSSC[C@@H](C(=O)O)NC(=O)[C@H](CO)NC1=O [EC5-21] (H-CKN[Phe(4-Cl)]F[dW]KTFTSC-OH; disulfide 1-12)    11.30

We next turn to a different compound, shown below.
What is its pKi for UniProtKB P30875? Entry: C[C@H](N)C(=O)NCC(=O)N[C@H]1CSSC[C@@H](C(=O)O)NC(=O)[C@H](CO)NC(=O)[C@H]([C@@H](C)O)NC(=O)[C@H](Cc2ccccc2)NC(=O)[C@H]([C@@H](C)O)NC(=O)[C@H](CCCCN)NC(=O)[C@@H](Cc2c[nH]c3ccccc23)NC(=O)[C@H](Cc2ccccc2)NC(=O)[C@H](Cc2ccccc2)NC(=O)[C@H](CC(N)=O)NC(=O)[C@H](CCCCN)NC1=O
11.30

* * *

assayed-system: Somatostatin receptor type 3 (Mus musculus)
Sequence (P30935 whole entry): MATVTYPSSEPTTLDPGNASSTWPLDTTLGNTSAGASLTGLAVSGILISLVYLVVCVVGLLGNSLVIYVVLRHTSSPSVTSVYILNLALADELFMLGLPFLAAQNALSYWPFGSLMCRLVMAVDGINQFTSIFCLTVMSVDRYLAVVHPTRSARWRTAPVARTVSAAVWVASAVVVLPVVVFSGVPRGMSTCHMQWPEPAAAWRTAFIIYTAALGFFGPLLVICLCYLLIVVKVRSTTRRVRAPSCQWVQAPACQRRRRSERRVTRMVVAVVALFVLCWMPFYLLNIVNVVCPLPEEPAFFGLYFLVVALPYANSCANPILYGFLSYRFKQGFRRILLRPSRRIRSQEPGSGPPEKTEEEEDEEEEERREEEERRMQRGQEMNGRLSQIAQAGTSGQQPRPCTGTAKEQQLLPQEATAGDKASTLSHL
pKi: −log10 of the molar value. Where a SMILES comes first, the peptide text is derived from it. Bridges are numbered along the chain shown (N, C = ends). [ ]: non-standard residue; d: D form. The star is where a group is joined. Phe(4-Cl) = N[C@@H](Cc1ccc(Cl)cc1)C(=O)O; dPhe(4-Cl) = N[C@H](Cc1ccc(Cl)cc1)C(=O)O; 2Nal = N[C@@H](Cc1ccc2ccccc2c1)C(=O)O; 1Nal = N[CH](Cc1cccc2ccccc12)C(=O)O; Thr(ol) = C[CH](O)[CH](N)CO; Abu = CC[C@H](N)C(=O)O; Ahx = NCCCCCC(=O)O; Bn = c1ccc(C*)cc1
reported-metric: pKi

CC(C)C1NC(=O)C(CCCCN)NC(=O)C(Cc2c[nH]c3ccccc23)NC(=O)C(Cc2ccc(O)cc2)NC(=O)C(NC(=O)C(N)Cc2cccc3ccccc23)CSSCC(C(=O)NC(CO)C(C)O)NC1=O (centres undefined) [DC23-60] (H-[1Nal]CYWKVC[Thr(ol)]; disulfide 2-7; configuration not given here)    6.78
CC[C@H](NC(=O)[C@@H](N)Cc1ccc(Cl)cc1)C(=O)N[C@@H](Cc1ccc(O)cc1)C(=O)N[C@H](Cc1c[nH]c2ccccc12)C(=O)N[C@@H](CCCCN)C(=O)N[C@H](C(=O)N[C@@H](C)C(=O)N[C@H](Cc1ccccc1)C(N)=O)C(C)C [BIM 23067] (H-[Phe(4-Cl)][Abu]Y[dW]KVA[dF]-NH2)    6.91
CC(C)[C@H](NC(=O)[C@H](CCCCN)NC(=O)[C@@H](Cc1c[nH]c2ccccc12)NC(=O)[C@H](Cc1ccc(O)cc1)NC(=O)[C@H](C)NC(=O)[C@H](N)Cc1ccc(Cl)cc1)C(=O)N[C@@H](C)C(=O)N[C@@H](Cc1ccc2ccccc2c1)C(N)=O [CAS_150155-67-2] (H-[dPhe(4-Cl)]AY[dW]KVA[2Nal]-NH2)    6.84

a: C[C@@H](OCc1ccccc1)[C@@H]1NC(=O)[C@H](CCCCN)NC(=O)[C@@H](Cc2c[nH]c3ccccc23)NC(=O)[C@H](Cc2ccccc2)NC(=O)CCCCCNC1=O [c[Ahx-Phe-D-Trp-Lys-Thr(Bzl)]] (cyclo([Ahx]F[dW]KT(Bn)))
b: C[C@@H]1NC(=O)[C@@H]2CCCN2C(=O)[C@H](Cc2ccccc2)NC(=O)[C@H]([C@@H](C)O)NC(=O)[C@H](CCCCN)NC(=O)[C@@H](Cc2c[nH]c3ccccc23)NC1=O [cyclo(Pro-Ala-Trp-Lys-Thr-Phe)] (cyclo(A[dW]KTFP))
For the two items a and b , which reports the higher pKi value? Kindly state the label of the option you pick.
a
(a: 7.14, b: 6.61)

Reference source for all entries: BindingDB's records for PubMed 8100350
